# System: U937 cells
# experiment summary: U937 cell assay: inhibition of TNFa/zVAD-induced cell death (necroptosis), MTS viability
# Assay type: cell-based
recorded metric: pIC50
Reminder that pIC50 is minus the log10 of a molar concentration.

COc1ncnc(N2CCC(C(=O)N3OCC[C@H]3c3cc(F)cc(C#N)c3)CC2)c1F    8.10

Field: next compound
Query: pIC50; subject: `COc1cc(N2CCC(C(=O)N3OCC[C@H]3c3cc(F)cc(C#N)c3)CC2)ncn1`
7.10
